- Test system: Vero E6 infected with SARS-CoV-2
- testDetails: inhibition of SARS-CoV-2 cytopathic effect; higher = more antiviral protection, active = above 15
- measurementSetup: 100 nM; 48 h
metric: inhibition of SARS-CoV-2 cytopathic effect (%)
Report the value in % with no unit label.

[
  {
    "molecule": "C[N+]12CCC(CC1)C(OC(=O)C(O)(c1ccccc1)c1ccccc1)C2 (centres undefined)",
    "unitLabel": "%",
    "observedValue": -0.23
  },
  {
    "molecule": "CCC(=O)O[C@@](Cc1ccccc1)(c1ccccc1)[C@@H](C)CN(C)C",
    "unitLabel": "%",
    "observedValue": 1.97
  },
  {
    "molecule": "CCOc1ccc2nc(SCCN3CCOCC3)[nH]c2c1",
    "unitLabel": "%",
    "observedValue": -1.23
  },
  {
    "molecule": "Cc1sc(N)c(C(=O)c2cccc(C(F)(F)F)c2)c1C",
    "unitLabel": "%",
    "observedValue": -3.31
  }
]

Data request, read-out inhibition of SARS-CoV-2 cytopathic effect, for COC(=O)C1=C(C)NC(C)=C(C(=O)OCCN2CCN(C(c3ccccc3)c3ccccc3)CC2)C1c1cccc([N+](=O)[O-])c1 (centres undefined)
-0.02

Data request, read-out inhibition of SARS-CoV-2 cytopathic effect, for CON(C)C(=O)[C@H](O)[C@H](Cc1ccccc1)NC(=O)c1cc2cc(Cl)ccc2[nH]1
1.7

Data request, read-out inhibition of SARS-CoV-2 cytopathic effect, for O=C(O)CCn1c2c(c3ccccc31)C[C@H](NS(=O)(=O)c1ccc(F)cc1)CC2
0.01

Data request, read-out inhibition of SARS-CoV-2 cytopathic effect, for c1ccc(CC2=NCCN2)cc1
1.33

Data request, read-out inhibition of SARS-CoV-2 cytopathic effect, for NCCCS(=O)(=O)O [tramiprosate]
3.29

Data request, read-out inhibition of SARS-CoV-2 cytopathic effect, for FCc1ccc(OCCOc2ccc(Cl)cc2Cl)c(Cl)n1
2.11

Data request, read-out inhibition of SARS-CoV-2 cytopathic effect, for C=CCNc1c(O)cc2c(O)c1C[C@@H](C)C[C@H](OC)[C@H](O)[C@@H](C)/C=C(\C)[C@H](OC(N)=O)[C@@H](OC)/C=C\C=C(/C)C(=O)N2
6.54

Data request, read-out inhibition of SARS-CoV-2 cytopathic effect, for O=C(C1CC1)N1CC[C@@H](Cc2n[nH]c(=O)n2-c2ccc(-c3ccc4occc4c3)cc2)C1
-1.43

Values from the supplement of paper PMC13380429
